pIC50: −log10 of the molar value.
Notes on pIC50 obtained with PIK3CG (human).

Compound	pIC50
CC(C)c1cccc(CNC(=O)Nc2nc3c(s2)-c2c(c(-c4cccnc4)nn2-c2ccccc2Cl)CC3)c1	> 6.10
CC(C)CNC(=O)CCNC(=O)Nc1nc2c(s1)-c1c(c(-c3cncnc3)nn1-c1ccccc1Cl)CC2	> 6.10
Cn1ccnc1CNC(=O)Nc1nc2c(s1)-c1c(c(-c3cccnc3)nn1-c1ccccc1Cl)CC2	> 6.10
CC(C)(C)OC(=O)N1CCC[C@H]1CNC(=O)Nc1nc2c(s1)-c1c(c(-c3cncnc3)nn1-c1ccccc1Cl)CC2	> 6.10
O=C(Nc1nc2c(s1)-c1c(c(-c3ccccc3)nn1-c1ccccc1Cl)CC2)NC1CCS(=O)(=O)C1 (configuration not stated)	> 6.10
CS(=O)(=O)c1ccc(CNC(=O)Nc2nc3c(s2)-c2c(c(-c4cncnc4)nn2-c2ccccc2Cl)CC3)cc1	> 6.10
COC(=O)CCNC(=O)Nc1nc2c(s1)-c1c(c(-c3cncnc3)nn1-c1ccccc1Cl)CC2	> 6.10
O=C(Nc1nc2c(s1)-c1c(c(-c3cccnc3)nn1-c1ccccc1Cl)CC2)NC1CCC(N2CCNC2=O)CC1 (configuration not stated)	> 6.10
CNC(=O)[C@@H](C)NC(=O)Nc1nc2c(s1)-c1c(c(-c3ccccc3)nn1-c1ccccc1Cl)CC2	> 6.10
O=C(NC[C@@H]1CCCN1)Nc1nc2c(s1)-c1c(c(-c3cncnc3)nn1-c1ccccc1F)CC2	> 6.10
O=C(NCCCn1ccnc1)Nc1nc2c(s1)-c1c(c(-c3cncnc3)nn1-c1ccccc1F)CC2	> 6.10
O=C(NCCc1ccccn1)Nc1nc2c(s1)-c1c(c(-c3cccnc3)nn1-c1ccccc1Cl)CC2	> 6.10
CN(C)C(=O)CCNC(=O)Nc1nc2c(s1)-c1c(c(-c3ccccc3)nn1-c1ccccc1Cl)CC2	> 6.10
O=C(O)CC1(CNC(=O)Nc2nc3c(s2)-c2c(c(-c4cccnc4)nn2-c2ccccc2Cl)CC3)CCCCC1	> 6.10
C[C@@H](NC(=O)Nc1nc2c(s1)-c1c(c(-c3ccccc3)nn1-c1ccccc1Cl)CC2)C(=O)N1CCCCC1	> 6.10
COc1cccc(CNC(=O)Nc2nc3c(s2)-c2c(c(-c4cncnc4)nn2-c2ccccc2Cl)CC3)c1	> 6.10
O=C(Nc1nc2c(s1)-c1c(c(-c3cncnc3)nn1-c1ccccc1Cl)CC2)NC1CCCNC1 (configuration not stated)	> 6.10
